# Assayed system: human LPA1 (Homo sapiens)
# Construct: expressed in transfected cells; host or cells: Chinese hamster ovary (CHO) cells
# Experiment notes: LPA1 functional antagonist assay (LPA-induced calcium flux)
# Type: cell-based
# Applied conditions: CHO cells overexpressing human LPA1; calcium flux induced by 10 nM LPA; read-out: hLPA1 IC50
pIC50: −log10 of the molar value.
Quantity name: pIC50

[
  {
    "Compound": "Cc1noc(-c2ccc(O[C@H]3CCC[C@H](C(=O)O)C3)cc2)c1COC(=O)N(C)C1CCC1 [Example 36]",
    "Experimental result": 6.99
  },
  {
    "Compound": "Cc1noc(-c2ccc(OC3CCCC(F)(C(=O)O)C3)cc2)c1COC(=O)N(C)C1CCCC1 (single isomer, unassigned) [Example 5]",
    "Experimental result": 6.88
  },
  {
    "Compound": "Cc1noc(-c2ccc(O[C@H]3CCC[C@](C)(C(=O)O)C3)cc2)c1COC(=O)N(C)C1CCCC1 (racemic) [Example 8]",
    "Experimental result": 7.05
  },
  {
    "Compound": "Cc1noc(-c2ccc(O[C@@H]3CCC[C@@H](CC(=O)O)C3)cc2)c1COC(=O)N(C)C1CCCC1 (racemic) [Example 47]",
    "Experimental result": 6.24
  },
  {
    "Compound": "Cc1nc(-c2onc(C)c2COC(=O)N(C)Cc2ccccc2)ccc1O[C@H]1CCC[C@H](C(=O)O)C1 [Example 18]",
    "Experimental result": 7.51
  }
]

a: Cc1noc(-c2ccc(O[C@H]3CCC[C@H](C(=O)O)C3)cn2)c1COC(=O)N(C)C1CC(C)(C)C1 [Example 70]
b: Cc1noc(-c2ccc(OC3CCCC(c4nnn[nH]4)C3)cc2)c1COC(=O)N(C)C1CCCC1 (single isomer, unassigned) [Example 78]
c: Cc1noc(-c2ccc(O[C@H]3CCC[C@@H](CC(=O)O)C3)cc2)c1COC(=O)N(C)C1CCCC1 [Example 48]
[in] Let's sort these by pIC50, smallest first. Go ahead? To answer, arrange all of the labels according to the requested order.
[out] c, b, a

* * *

# Assayed system: human LPA1 (Homo sapiens, UniProt Q92633)
# Construct: expressed in transfected cells; host or cells: Chinese hamster ovary (CHO) cells
# Sequence (Q92633 whole entry): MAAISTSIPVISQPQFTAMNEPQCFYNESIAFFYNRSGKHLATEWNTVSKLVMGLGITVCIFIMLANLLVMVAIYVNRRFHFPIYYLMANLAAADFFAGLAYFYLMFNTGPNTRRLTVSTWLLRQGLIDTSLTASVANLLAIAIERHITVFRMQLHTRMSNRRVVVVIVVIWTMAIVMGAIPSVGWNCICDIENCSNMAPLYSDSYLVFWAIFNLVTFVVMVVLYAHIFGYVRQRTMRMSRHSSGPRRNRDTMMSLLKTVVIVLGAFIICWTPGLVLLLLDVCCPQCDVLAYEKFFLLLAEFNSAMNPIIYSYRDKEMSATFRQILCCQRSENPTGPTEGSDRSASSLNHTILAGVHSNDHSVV
# Experiment notes: LPA1 functional antagonist assay (LPA-induced calcium flux)
# Assay type: cell-based
# Applied conditions: CHO cells overexpressing human LPA1; calcium flux induced by 10 nM LPA; read-out: hLPA1 IC50
Quantity name: IC50 (nM)

A: Cc1noc(-c2ccc(OC3CCCC(c4nnn[nH]4)C3)cc2)c1COC(=O)N(C)C1CCCC1 (single isomer, unassigned) [Example 76]
B: Cc1noc(-c2ccc(O[C@@H]3CCC[C@@H](C(=O)O)C3)cc2)c1COC(=O)N(C)C(C)C1CCC1 (stereo partly shown)
C: Cc1noc(-c2ccc(O[C@H]3CCC[C@H](C(=O)O)C3)cn2)c1COC(=O)N(C)CCC(C)C
D: Cc1noc(-c2cnc(O[C@H]3CCC[C@H](C(=O)O)C3)cn2)c1COC(=O)N(C)C(C)C1CC1 (mixture of isomers)
[in] Arrange by IC50, high to low. To answer, arrange all of the labels according to the requested order.
[out] A, B, D, C
(A: 2310 nM, B: 214 nM, D: 85 nM, C: 5.2 nM)

1: Cc1noc(-c2ccc(O[C@H]3CCC[C@H](C(N)=O)C3)cc2)c1COC(=O)N(C)C1CCCC1 (racemic)
2: CCC(CC)N(C)C(=O)OCc1c(C)noc1-c1ccc(O[C@H]2CCC[C@H](C(=O)O)C2)c(C)n1
3: Cc1nc(-c2onc(C)c2COC(=O)N(C)C2(c3ccccc3)CC2)ccc1O[C@H]1CCC[C@H](C(=O)O)C1
[in] Let's sort these by IC50, smallest first. Go ahead? To answer, arrange all of the labels according to the requested order.
[out] 2, 3, 1
